A collection of compounds and their measured viability at 72 h, 10 µM
# ASSAY SUMMARY: Cell viability, MTT assay, Jurkat
# Assay type: cell-based, human
# TEST CONDITIONS: human, Jurkat E6.1 T-cell leukemia cells, at 10 µM, read-out: percentage of cell viability, MTT, Jurkat
PARAMETER MEASURED: viability at 72 h, 10 µM (%)

Cc1ccc(/C(=N/NS(=O)(=O)c2ccc([N+](=O)[O-])cc2)Sc2cc(Cl)c(C)cc2S(N)(=O)=O)cc1 | 98.1
O=C1c2ccccc2C(=O)c2c(Nc3ccc(S(=O)(=O)N(CCO)CCO)cc3)ccc(O)c21 | 80.2
C#CCCN1CCN(c2ccc(-n3c(=O)ccc4cnc5ccc(-c6ccc(N)nc6)cc5c43)cc2C(F)(F)F)CC1 | 23.3

---

A collection of compounds and their measured viability at 72 h, 100 µM
# ASSAY SUMMARY: Cell viability, MTT assay, HCT116
# Assay type: cell-based, human
# TEST CONDITIONS: human, HCT116 colorectal carcinoma cells, at 100 µM, read-out: percentage of cell viability, MTT, HCT116
PARAMETER MEASURED: viability at 72 h, 100 µM (%)

C#CCCN1CCN(c2ccc(-n3c(=O)ccc4cnc5ccc(-c6ccc(N)nc6)cc5c43)cc2C(F)(F)F)CC1 [Compound 4] | 0
O=C1c2ccccc2C(=O)c2c(Nc3ccc(S(=O)(=O)N(CCO)CCO)cc3)ccc(O)c21 [Compound 2] | 89.1
Cc1ccc2ccccc2c1CSc1ncnc2c1ncn2C1OC(CO)C(O)C1O (stereo not drawn) [Compound 1] | 24

---

# EXPERIMENTAL SYSTEM: 20S proteasome in Jurkat cell lysates, C-L activity (Homo sapiens, UniProt P28072)
# Sequence (P28072 35-239 limits assumed): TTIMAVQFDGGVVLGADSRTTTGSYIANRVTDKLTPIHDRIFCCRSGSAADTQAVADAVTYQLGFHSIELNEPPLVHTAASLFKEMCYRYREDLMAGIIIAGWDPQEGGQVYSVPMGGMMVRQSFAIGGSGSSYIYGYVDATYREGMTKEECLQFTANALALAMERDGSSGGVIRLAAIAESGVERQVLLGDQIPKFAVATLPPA
# Sequence (Q99436 44-277 partner): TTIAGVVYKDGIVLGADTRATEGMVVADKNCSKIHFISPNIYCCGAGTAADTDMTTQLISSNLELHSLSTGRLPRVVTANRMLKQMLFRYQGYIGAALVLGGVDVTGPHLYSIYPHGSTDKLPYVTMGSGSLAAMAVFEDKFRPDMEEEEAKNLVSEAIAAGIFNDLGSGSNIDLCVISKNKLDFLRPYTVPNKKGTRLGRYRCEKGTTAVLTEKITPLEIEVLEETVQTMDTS
# ASSAY SUMMARY: Proteasome inhibition assay in cell lysates, Jurkat, C-L
# TEST CONDITIONS: read-out: percentage of proteasome inhibition, C-L, cell lysates Jurkat, at 100 µM; Table 2 legend: bortezomib 10 µM
A collection of compounds and their measured inhibition at 100 µM
PARAMETER MEASURED: inhibition at 100 µM (%)

CC(C)c1nc(CN(C)C(=O)N[C@@H](CCN2CCOCC2)C(=O)N[C@H](CC[C@H](Cc2ccccc2)NC(=O)OCc2cncs2)Cc2ccccc2)cs1 [Compound 5, cobicistat, reference compound] | 36.2
C#CCCN1CCN(c2ccc(-n3c(=O)ccc4cnc5ccc(-c6ccc(N)nc6)cc5c43)cc2C(F)(F)F)CC1 | 98.9
O=C1c2ccccc2C(=O)c2c(Nc3ccc(S(=O)(=O)N(CCO)CCO)cc3)ccc(O)c21 | 73.5
Cc1ccc(/C(=N/NS(=O)(=O)c2ccc([N+](=O)[O-])cc2)Sc2cc(Cl)c(C)cc2S(N)(=O)=O)cc1 | 25.4
Cc1ccc2ccccc2c1CSc1ncnc2c1ncn2C1OC(CO)C(O)C1O (centres unmarked) | 19.4

---

# ASSAY SUMMARY: Cell viability, MTT assay, HT-29
# Type: cell-based, human
# TEST CONDITIONS: human, HT-29 colorectal carcinoma cells, at 10 µM, read-out: percentage of cell viability, MTT, HT-29
Define the label as yes (1) when viability at 72 h, 10 µM is strictly less than 90% and as no (0) in all remaining cases.

O=C1c2ccccc2C(=O)c2c(Nc3ccc(S(=O)(=O)N(CCO)CCO)cc3)ccc(O)c21 [Compound 2] | yes (1)
C#CCCN1CCN(c2ccc(-n3c(=O)ccc4cnc5ccc(-c6ccc(N)nc6)cc5c43)cc2C(F)(F)F)CC1 [Compound 4] | no (0)
Cc1ccc(/C(=N/NS(=O)(=O)c2ccc([N+](=O)[O-])cc2)Sc2cc(Cl)c(C)cc2S(N)(=O)=O)cc1 [Compound 3] | no (0)
CC(C)c1nc(CN(C)C(=O)N[C@@H](CCN2CCOCC2)C(=O)N[C@H](CC[C@H](Cc2ccccc2)NC(=O)OCc2cncs2)Cc2ccccc2)cs1 [Compound 5, cobicistat, reference compound] | no (0)
CC(C)C[C@H](NC(=O)[C@H](Cc1ccccc1)NC(=O)c1cnccn1)B(O)O [Bortezomib, bortezomib, reference compound] | yes (1)
Cc1ccc2ccccc2c1CSc1ncnc2c1ncn2C1OC(CO)C(O)C1O (stereo not drawn) [Compound 1] | no (0)

---

# EXPERIMENTAL SYSTEM: 20S proteasome in Jurkat cell lysates, C-L activity (Homo sapiens, UniProt P28072)
# Sequence (P28072 35-239 limits assumed): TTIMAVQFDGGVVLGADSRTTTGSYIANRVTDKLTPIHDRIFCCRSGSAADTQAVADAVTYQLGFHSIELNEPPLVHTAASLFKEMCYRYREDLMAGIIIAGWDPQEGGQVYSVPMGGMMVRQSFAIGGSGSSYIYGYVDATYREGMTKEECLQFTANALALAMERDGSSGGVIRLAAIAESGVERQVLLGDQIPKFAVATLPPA
# Sequence (Q99436 44-277 partner): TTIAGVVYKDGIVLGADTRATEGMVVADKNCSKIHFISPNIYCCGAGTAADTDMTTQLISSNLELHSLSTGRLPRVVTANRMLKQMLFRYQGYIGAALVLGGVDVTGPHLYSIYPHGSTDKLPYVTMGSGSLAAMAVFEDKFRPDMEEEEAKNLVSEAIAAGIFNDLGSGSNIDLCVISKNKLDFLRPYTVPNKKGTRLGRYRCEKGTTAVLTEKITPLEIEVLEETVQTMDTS
# ASSAY SUMMARY: Proteasome inhibition assay in cell lysates, Jurkat, C-L
# TEST CONDITIONS: read-out: percentage of proteasome inhibition, C-L, cell lysates Jurkat, at 10 µM
A collection of compounds and their measured inhibition at 10 µM
PARAMETER MEASURED: inhibition at 10 µM (%)

O=C1c2ccccc2C(=O)c2c(Nc3ccc(S(=O)(=O)N(CCO)CCO)cc3)ccc(O)c21 [Compound 2] | 26.9
C#CCCN1CCN(c2ccc(-n3c(=O)ccc4cnc5ccc(-c6ccc(N)nc6)cc5c43)cc2C(F)(F)F)CC1 [Compound 4] | 8.16
CC(C)c1nc(CN(C)C(=O)N[C@@H](CCN2CCOCC2)C(=O)N[C@H](CC[C@H](Cc2ccccc2)NC(=O)OCc2cncs2)Cc2ccccc2)cs1 [Compound 5, cobicistat, reference compound] | 0
Cc1ccc2ccccc2c1CSc1ncnc2c1ncn2C1OC(CO)C(O)C1O (centres unmarked) [Compound 1] | 2.27
Cc1ccc(/C(=N/NS(=O)(=O)c2ccc([N+](=O)[O-])cc2)Sc2cc(Cl)c(C)cc2S(N)(=O)=O)cc1 [Compound 3] | 0

---

A collection of compounds and their measured percentage of proteasome inhibition, CT-L, cell lysates HCT116
# EXPERIMENTAL SYSTEM: 20S proteasome in HCT116 cell lysates, CT-L activity (Homo sapiens)
# ASSAY SUMMARY: Proteasome inhibition assay in cell lysates, HCT116, CT-L
# TEST CONDITIONS: at 100 µM; Table 2 legend: bortezomib 10 µM
PARAMETER MEASURED: percentage of proteasome inhibition, CT-L, cell lysates HCT116 (%)

C#CCCN1CCN(c2ccc(-n3c(=O)ccc4cnc5ccc(-c6ccc(N)nc6)cc5c43)cc2C(F)(F)F)CC1 [Compound 4] | 98
Cc1ccc(/C(=N/NS(=O)(=O)c2ccc([N+](=O)[O-])cc2)Sc2cc(Cl)c(C)cc2S(N)(=O)=O)cc1 [Compound 3] | 33
CC(C)c1nc(CN(C)C(=O)N[C@@H](CCN2CCOCC2)C(=O)N[C@H](CC[C@H](Cc2ccccc2)NC(=O)OCc2cncs2)Cc2ccccc2)cs1 [Compound 5, cobicistat, reference compound] | 67
O=C1c2ccccc2C(=O)c2c(Nc3ccc(S(=O)(=O)N(CCO)CCO)cc3)ccc(O)c21 [Compound 2] | 74
Cc1ccc2ccccc2c1CSc1ncnc2c1ncn2C1OC(CO)C(O)C1O (centres unmarked) [Compound 1] | 90

---

A collection of molecules and their measured IC50
# EXPERIMENTAL SYSTEM: 20S proteasome in HT-29 cell lysates, CT-L activity (Homo sapiens)
# Sequence (P28074 60-263): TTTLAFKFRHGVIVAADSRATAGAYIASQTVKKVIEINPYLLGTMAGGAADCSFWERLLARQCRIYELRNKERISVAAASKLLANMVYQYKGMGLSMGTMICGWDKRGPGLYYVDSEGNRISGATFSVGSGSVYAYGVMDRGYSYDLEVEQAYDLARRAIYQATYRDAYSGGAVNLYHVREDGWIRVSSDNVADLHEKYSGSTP
# Sequence (P20618 29-241 partner): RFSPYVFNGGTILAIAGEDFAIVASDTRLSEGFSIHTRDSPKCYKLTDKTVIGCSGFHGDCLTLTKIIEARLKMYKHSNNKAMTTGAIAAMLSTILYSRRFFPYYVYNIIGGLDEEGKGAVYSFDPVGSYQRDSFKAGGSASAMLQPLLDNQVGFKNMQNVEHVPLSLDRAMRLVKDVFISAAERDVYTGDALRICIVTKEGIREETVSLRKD
# ASSAY SUMMARY: Proteasome inhibition assay in cell lysates, HT-29, CT-L
PARAMETER MEASURED: IC50 (µM)

Cc1ccc2ccccc2c1CSc1ncnc2c1ncn2C1OC(CO)C(O)C1O (stereo not shown) [Compound 1] | 90.8
C#CCCN1CCN(c2ccc(-n3c(=O)ccc4cnc5ccc(-c6ccc(N)nc6)cc5c43)cc2C(F)(F)F)CC1 [Compound 4] | 31.3
O=C1c2ccccc2C(=O)c2c(Nc3ccc(S(=O)(=O)N(CCO)CCO)cc3)ccc(O)c21 [Compound 2] | 73.8
CC(C)c1nc(CN(C)C(=O)N[C@@H](CCN2CCOCC2)C(=O)N[C@H](CC[C@H](Cc2ccccc2)NC(=O)OCc2cncs2)Cc2ccccc2)cs1 [Compound 5, cobicistat, reference compound] | 84.3
